Target: hOT7T175 (Homo sapiens, UniProt Q969F8, L364H)
Construct: expressed in transfected cells
Sequence (Q969F8 whole entry L364H): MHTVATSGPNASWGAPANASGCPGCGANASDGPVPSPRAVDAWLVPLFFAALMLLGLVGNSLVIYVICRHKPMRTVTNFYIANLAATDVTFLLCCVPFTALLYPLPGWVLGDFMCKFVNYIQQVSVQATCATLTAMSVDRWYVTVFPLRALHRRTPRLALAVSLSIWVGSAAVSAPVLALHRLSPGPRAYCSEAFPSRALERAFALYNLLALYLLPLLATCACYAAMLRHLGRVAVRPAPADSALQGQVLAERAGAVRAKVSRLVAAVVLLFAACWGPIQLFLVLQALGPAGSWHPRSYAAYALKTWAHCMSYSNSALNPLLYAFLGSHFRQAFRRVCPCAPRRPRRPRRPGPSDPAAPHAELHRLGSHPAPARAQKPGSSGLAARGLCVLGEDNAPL
Format: cell-based
Details: hOT7T175/CHO, FLIPR, evaluation for 40 seconds after initiation of the reaction
Non-standard residues stand in square brackets, D forms with d. Arg(Me) = CNC(=N)NCCC[C@H](N)C(=O)O; azaGly = NNC(=O)O
// reported Specific Act. (EC50/MS10 EC50) for each item listed

SUBSTANCE: 3-(4-Hydroxyphenyl)propionyl-D-Trp-Asn-Thr-Phe-AzaGly-Leu-Arg(Me)-Trp-NH2 [Compound No. 559]
TARGET OF ASSAY: hOT7T175 (Homo sapiens, UniProt Q969F8, L364H)
TEST RESULT: 0.3
//
SUBSTANCE: Ac-D-Tyr-D-Trp-Asn-Thr-Phe-AzaGly-γMeLeu-Arg(Me)-Trp-NH2 (Ac-[dY][dW]NTF[azaGly]-{γMeLeu-Arg(Me)-Trp-NH2}) [Compound No. 699]
TARGET OF ASSAY: hOT7T175 (Homo sapiens, UniProt Q969F8, L364H)
TEST RESULT: 1.3
//
SUBSTANCE: Ac-D-Arg-Acp-D-Tyr-D-Trp-Asn-Thr-Phe-AzaGly-Leu-Arg(Me)-Trp-NH2 [Compound No. 551]
TARGET OF ASSAY: hOT7T175 (Homo sapiens, UniProt Q969F8, L364H)
TEST RESULT: 1.2

Short answer for Ac-D-Tyr-D-Trp-Asn-Thr-Tyr-AzaGly-Leu-Arg(Me)-Trp-NH2 (Ac-[dY][dW]NTY[azaGly]L[Arg(Me)]W-NH2; SMILES CNC(=N)NCCC[C@H](NC(=O)[C@H](CC(C)C)NC(=O)NNC(=O)[C@H](Cc1ccc(O)cc1)NC(=O)[C@@H](NC(=O)[C@H](CC(N)=O)NC(=O)[C@@H](Cc1c[nH]c2ccccc12)NC(=O)[C@@H](Cc1ccc(O)cc1)NC(C)=O)[C@@H](C)O)C(=O)N[C@@H](Cc1c[nH]c2ccccc12)C(N)=O) [Compound No. 691] : Specific Act. (EC50/MS10 EC50) was 1.1

----------
Target: hOT7T175 (Homo sapiens, UniProt Q969F8, L364H)
Construct: expressed in transfected cells
Assay type: cell-based
Conditions: hOT7T175/CHO, FLIPR, evaluation for 40 seconds after initiation of the reaction
Non-standard residues stand in square brackets, D forms with d. Arg(Me) = CNC(=N)NCCC[C@H](N)C(=O)O; azaGly = NNC(=O)O
Reported Specific Act. (EC50/MS10 EC50) values for a set of substances

SUBSTANCE: Arg-Arg-D-Tyr-D-Pya(4)-Asn-Ser-Phe-AzaGly-Leu-Arg(Me)-Trp-NH2 [Compound No. 537]
TEST RESULT: 4.7
//
SUBSTANCE: Ac-D-Tyr-Pro-Asn-Thr-Phe-AzaGly-Leu-Arg(Me)-Trp-NH2 (Ac-[dY]PNTF[azaGly]L[Arg(Me)]W-NH2; SMILES CNC(=N)NCCC[C@H](NC(=O)[C@H](CC(C)C)NC(=O)NNC(=O)[C@H](Cc1ccccc1)NC(=O)[C@@H](NC(=O)[C@H](CC(N)=O)NC(=O)[C@@H]1CCCN1C(=O)[C@@H](Cc1ccc(O)cc1)NC(C)=O)[C@@H](C)O)C(=O)N[C@@H](Cc1c[nH]c2ccccc12)C(N)=O) [Compound No. 657]
TEST RESULT: 1.1

The reported Specific Act. (EC50/MS10 EC50) of the substance Ac-D-Tyr-D-Pya(4)-Asn-Thr-Phe-AzaGly-Leu-Arg(Me)-Trp-NH2 [Compound No. 562] was 1.0

----------
Target: hOT7T175 (Homo sapiens)
Construct: expressed in transfected cells
Assay: Intracellular Ca ion level-increasing activity using FLIPR (180 seconds; specific activity to Metastin (1-54))
Format: cell-based
Conditions: hOT7T175/CHO, change in intracellular calcium ion level for 180 seconds, Tables 21-23
As shown below, each of these substances has a reported intracellular Ca ion level-increasing activity [specific activity to Metastin (1-54)] value.
// print number alone

# example entries with known answers
SUBSTANCE: 3-Phenylpropionyl-Asn-Ile-Phe-AzaGly-Leu-Arg(Me)-Trp-NH2 [Compound No. 506]
TEST RESULT: 1

SUBSTANCE: D-Tyr-D-Pya(4)-Asn-Ser-Cha-Gly-Leu-Arg(Me)-Trp-NH2 [Compound No. 496]
TEST RESULT: 5

SUBSTANCE: 3-Phenylpropionyl-Asn-Thr-Phe-AzaGly-Leu-Arg(Me)-Trp-NH2 [Compound No. 505]
TEST RESULT: 20

SUBSTANCE: D-Tyr-D-Pya(4)-Asn-Ser-Phe-AzaGly-Leu-Har-Phe-NH2 [Compound No. 488]
TEST RESULT: 1

SUBSTANCE: D-Tyr-D-Pya(4)-Asn-Thr-Phe-AzaGly-Leu-Arg(Me)-Trp-NH2 [Compound No. 501]
TEST RESULT: 10

SUBSTANCE: (S)-1-(Quinolin-8-yl-carbamoyl)-4-thiapentylcarbamoyl-D-Tyr-Asn-Trp-Asn-Ser-Phe-Gly-Leu-Arg(Me)-Phe-NH2 [Compound No. 400]
TEST RESULT: 1

SUBSTANCE: 2-Aminoethyl-Gly-D-Tyr-Asn-Trp-Asn-Ser-Phe-Gly-Leu-Arg(Me)-Phe-NH2 [Compound No. 375]
TEST RESULT: 2

SUBSTANCE: D-Tyr-D-Pya(4)-Asn-Ser-Phe-AzaGly-Leu-Lys-Phe-NH2 [Compound No. 487]
TEST RESULT: 1

Form field intracellular Ca ion level-increasing activity [specific activity to Metastin (1-54)], entry D-Tyr-Pya(4)-Asn-Ser-Phe-AzaGly-Leu-Arg(Me)-Phe-NH2 [Compound No. 490] : 3

The reported value for 3-Phenylpropionyl-Asn-Ser-Phe-AzaGly-Leu-Arg(Me)-Trp-NH2 [Compound No. 499] in terms of intracellular Ca ion level-increasing activity [specific activity to Metastin (1-54)] is 10

The value of intracellular Ca ion level-increasing activity [specific activity to Metastin (1-54)] measured for the substance D-Tyr-D-Pya(4)-Asn-Ser-Phe-AzaGly-Leu-Arg(Me)-Trp-NH2 [Compound No. 385] turned out to be 10

----------
Biological target: hOT7T175 (Homo sapiens)
Construct: expressed in transfected cells
Assay: Intracellular Ca ion level-increasing activity using FLIPR (180 seconds; specific activity to Metastin (1-54))
Format: cell-based
Details: hOT7T175/CHO, change in intracellular calcium ion level for 180 seconds, Tables 21-23
Starred links: 1 amine or outer side, 2 acyl side, 3 side chain; linkers in the order of their positions; H or OH if unused. Non-standard residues stand in square brackets, D forms with d. Residues, ends and D or L forms follow the SMILES beside them. *: point of attachment. X1 = NC(=O)C[C@@H](C(=O)[*:2])N(C[C@@H](N)Cc1ccc(O)cc1)[*:1]; NαAmidinoTrp = N=C(N)N[C@@H](Cc1c[nH]c2ccccc12)C(=O)*; Phe(4-F) = N[C@@H](Cc1ccc(F)cc1)C(=O)O; Arg(Me) = CNC(=N)NCCC[C@H](N)C(=O)O; 2Pal = N[C@@H](Cc1ccccn1)C(=O)O; 4Pal = N[C@@H](Cc1ccncc1)C(=O)O; d3Pal = N[C@H](Cc1cccnc1)C(=O)O; d4Pal = N[C@H](Cc1ccncc1)C(=O)O; azaGly = NNC(=O)O
READOUT LABEL: intracellular Ca ion level-increasing activity [specific activity to Metastin (1-54)]

COMPOUND: CNC(=N)NCCC[C@H](NC(=O)[C@H](CC(C)C)NC(=O)NNC(=O)[C@H](Cc1ccccc1)NC(=O)[C@H](CO)NC(=O)[C@H](CC(N)=O)NC(=O)[C@@H](Cc1ccncc1)NC(=O)[C@H](CC(N)=O)NC(=O)[C@H](N)Cc1ccc(O)cc1)C(=O)N[C@@H](Cc1ccccc1)C(N)=O [Compound No. 302] (H-[dY]N[d4Pal]NSF[azaGly]L[Arg(Me)]F-NH2)
TEST RESULT: 2

COMPOUND: CNC(=N)NCCC[C@H](NC(=O)[C@H](CC(C)C)NC(=O)CNC(=O)[C@H](Cc1ccccn1)NC(=O)[C@H](CO)NC(=O)[C@H](CC(N)=O)NC(=O)[C@H](Cc1c[nH]c2ccccc12)NC(=O)[C@H](CC(N)=O)NC(=O)[C@H](N)Cc1ccc(O)cc1)C(=O)N[C@@H](Cc1ccccc1)C(N)=O [Compound No. 281] (H-[dY]NWNS[2Pal]GL[Arg(Me)]F-NH2)
TEST RESULT: ½

COMPOUND: CNC(=N)NCCC[C@H](NC(=O)[C@H](CC(C)C)NC(=O)NNC(=O)[C@H](Cc1ccccc1)NC(=O)[C@H](CO)NC(=O)[C@H](CC(N)=O)NC(=O)[C@@H](Cc1c[nH]c2ccccc12)NC(=O)[C@H](CC(N)=O)NC[C@@H](N)Cc1ccc(O)cc1)C(=O)N[C@@H](Cc1ccccc1)C(N)=O [Compound No. 300] (H-[X1][dW]NSF[azaGly]L[Arg(Me)]F-NH2)
TEST RESULT: 5

COMPOUND: CNC(=N)NCCC[C@H](NC(=O)[C@H](CC(C)C)NC(=O)NNC(=O)[C@H](Cc1ccccc1)NC(=O)[C@H](CO)NC(=O)[C@H](CC(N)=O)NC(=O)[C@@H](N)Cc1c[nH]c2ccccc12)C(=O)N[C@@H](Cc1ccccc1)C(N)=O [Compound No. 271] (H-WNSF[azaGly]L[Arg(Me)]F-NH2)
TEST RESULT: 1

COMPOUND: CNC(=N)NCCC[C@H](NC(=O)[C@H](CC(C)C)NC(=O)NNC(=O)[C@H](Cc1ccccc1)NC(=O)[C@H](CO)NC(=O)[C@H](CC(N)=O)NC(=O)[C@H](Cc1ccccc1)NC(=O)[C@H](N)Cc1cccnc1)C(=O)N[C@@H](Cc1ccccc1)C(N)=O [Compound No. 256] (H-[d3Pal]FNSF[azaGly]L[Arg(Me)]F-NH2)
TEST RESULT: 1

COMPOUND: CNC(=N)NCCC[C@H](NC(=O)[C@H](CC(C)C)NC(=O)NNC(=O)[C@H](Cc1ccccc1)NC(=O)[C@@H](NC(=O)[C@H](CC(N)=O)NC(=O)[C@H](Cc1c[nH]c2ccccc12)NC(=O)[C@@H](CC(N)=O)NC(=O)[C@H](N)Cc1ccc(O)cc1)[C@@H](C)O)C(=O)N[C@@H](Cc1ccccc1)C(N)=O [Compound No. 298] (H-[dY][dN]WNTF[azaGly]L[Arg(Me)]F-NH2)
TEST RESULT: 5

Data point: CNC(=N)NCCC[C@H](NC(=O)[C@H](CC(C)C)NC(=O)NNC(=O)[C@H](Cc1ccccc1)NC(=O)[C@H](Cc1ccccc1)NC(=O)[C@H](CO)NC(=O)[C@H](CC(N)=O)NC(=O)[C@H](Cc1ccccc1)NC(=O)[C@H](CC(N)=O)NC(=O)[C@H](N)Cc1ccc(O)cc1)C(=O)N[C@@H](Cc1ccccc1)C(N)=O [Compound No. 270] (H-[dY]NFNSFF[azaGly]L[Arg(Me)]F-NH2) ; intracellular Ca ion level-increasing activity [specific activity to Metastin (1-54)] = 1

Kindly note the recorded intracellular Ca ion level-increasing activity [specific activity to Metastin (1-54)] for CNC(=N)NCCC[C@H](NC(=O)[C@H](CC(C)C)NC(=O)NNC(=O)[C@H](Cc1ccccc1)NC(=O)[C@H](CO)NC(=O)[C@H](CC(N)=O)NC(=O)[C@H](Cc1ccncc1)NC(=O)[C@@H](CC(N)=O)NC(=O)[C@@H](N)Cc1ccc(O)cc1)C(=O)N[C@@H](Cc1ccccc1)C(N)=O [Compound No. 304] (H-Y[dN][4Pal]NSF[azaGly]L[Arg(Me)]F-NH2) , which is 3

The reported intracellular Ca ion level-increasing activity [specific activity to Metastin (1-54)] of the compound CNC(=N)NCCC[C@H](NC(=O)[C@H](CC(C)C)NC(=O)NNC(=O)[C@H](Cc1ccccc1)NC(=O)[C@H](CO)NC(=O)[C@H](CC(N)=O)NC(=O)[C@H](Cc1ccncc1)NC(=O)[C@@H](CC(N)=O)NC(=O)[C@H](N)Cc1ccc(O)cc1)C(=O)N[C@@H](Cc1ccc(F)cc1)C(N)=O [Compound No. 317] (H-[dY][dN][4Pal]NSF[azaGly]L[Arg(Me)][Phe(4-F)]-NH2) was 1

// intracellular Ca ion level-increasing activity [specific activity to Metastin (1-54)] lookup, compound = CNC(=N)NCCC[C@H](NC(=O)[C@H](CC(C)C)NC(=O)NNC(=O)[C@H](Cc1ccccc1)NC(=O)[C@H](CO)NC(=O)[C@H](CC(N)=O)NC(=O)[C@H](Cc1c[nH]c2ccccc12)NC(=N)N)C(=O)N[C@@H](Cc1ccccc1)C(N)=O [Compound No. 273] (NαAmidinoTrp-NSF[azaGly]L[Arg(Me)]F-NH2) , result: 5

GET /value?item= CNC(=N)NCCC[C@H](NC(=O)[C@H](CC(C)C)NC(=O)CNC[C@H](Cc1ccccc1)NC(=O)[C@H](CO)NC(=O)[C@H](CC(N)=O)NC(=O)[C@H](Cc1c[nH]c2ccccc12)NC(=O)[C@H](CC(N)=O)NC(=O)[C@H](N)Cc1ccc(O)cc1)C(=O)N[C@@H](Cc1ccccc1)C(N)=O [Compound No. 308] &field=intracellular Ca ion level-increasing activity [specific activity to Metastin (1-54)] returns 2
